Source: paper PMC10372819

- Test: In vivo pharmacokinetics in Sprague-Dawley rats
- Condition details: male, rat, plasma, iv, 1 mg/kg, MRT0‒t, 1.0 mg/kg i.v.
Measurement type: MRT
Write the numeric value and follow it with the unit.

Inquiry: Item N#Cc1ccc(Nc2ncc(CO)c(Oc3c(F)cc(-c4ccc(C#N)cc4)cc3F)n2)cc1 [9g] has what recorded MRT?
Reply text: 1.19 h

----------
- Test: In vivo pharmacokinetics in Sprague-Dawley rats
- Condition details: male, rat, plasma, iv, 1 mg/kg, AUC0‒∞, 1.0 mg/kg i.v.
Measurement type: AUC (ng·h/mL)
Respond numerically; units are ng·h/mL and should not be typed.

Inquiry: Item "N#Cc1ccc(Nc2ncc(CO)c(Oc3c(F)cc(-c4ccc(C#N)cc4)cc3F)n2)cc1" has what recorded AUC?
Reply text: 247
